Just for reference, ChEMBL document CHEMBL1201862 is where these values come from.

- target.or.system: Corticotropin-releasing factor receptor 2/Corticotropin-releasing factor-binding protein (Homo sapiens, UniProt P24387+Q13324)
- assay.details: Dose Response confirmation of uHTS hits for small molecule antagonists of the CRF-binding protein and CRF-R2 receptor complex.
- Format: functional
- reported.conditions: read-out: IC50_Mean
Activity calls are given as the source filed them.
Outcome field: choose from active, inactive

As a guide, the following entries are already answered.
[[record]]
molecule = "O=c1c2ccccc2nc2n1C(CBr)CN2 (configuration not stated)"
group = "inactive"

[[record]]
molecule = "CCOc1ccc(C2C(C(=O)c3ccc4c(c3)OCCO4)=C(O)C(=O)N2CCCN2CCOCC2)cc1 (configuration not stated)"
group = "inactive"

[[record]]
molecule = "CC#CCCC(=O)N1C=Cc2ccccc2C1C#N (configuration not stated)"
group = "inactive"

[[record]]
molecule = "O=C(O)c1ccccc1NS(=O)(=O)c1ccc2c(c1)OCCO2"
group = "inactive"

[[record]]
molecule = "COC(=O)c1ccc(C(=O)NC2CCCc3c2cnn3-c2ccc(C)c(C)c2)cc1 (configuration not stated)"
group = "inactive"


Let's switch to this molecule now.
Can you look up the reported call for CCN(C(=O)CSc1cc(C)c2ccc(OC)cc2n1)C1CCS(=O)(=O)C1 (configuration not stated) for me?
inactive

* * *

- target.or.system: UniProt P10520
- assay.details: S. pyogenes streptokinase expression inhibitors, potency, dose response, plasminogen activation absorbance, OD405 (AID 1914);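 note: secreted streptokinase activity via plasminogen activation per viability signal from cell pellet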
- Type: functional, Streptococcus pyogenes M1 GAS
The source made the active and inactive calls.
Known EC50 of a selection of compounds

Briefly, EC50 measured for Cc1ccc2nc(N(CCCN(C)C)C(=O)c3ccc(S(=O)(=O)N4CCCCCC4)cc3)sc2c1 : > 150 µM (not active)

Briefly, EC50 measured for CCCCCCCc1nn2c(O)cc(=O)nc2s1 : > 150 µM (not active)

Briefly, EC50 measured for CCCCCCc1cc2cc(-c3nnc(-c4ccccc4)o3)c(=O)oc2cc1O : > 150 µM (not active)

Briefly, EC50 measured for N#CC1=C(N)SC(N)=C(C#N)C1c1c(Cl)cccc1Cl : 93.5 µM (active)

Briefly, EC50 measured for CCOc1ccc(/C=N/NC(=O)Cc2csc(Nc3cccc(C(F)(F)F)c3)n2)cc1 : 20.1 µM (active)

Briefly, EC50 measured for Cc1cccc(NC(c2ccc(C)s2)c2ccc3ccc(C)nc3c2O)n1 (stereo unspecified) : 2.96 µM (active)

Briefly, EC50 measured for COc1ccc(-c2oc(NC(=O)CCl)c(C#N)c2-c2ccc(OC)cc2)cc1 : 1.16 µM (active)

Briefly, EC50 measured for Cc1ccc(CN2C(=O)c3ccccc3NC2c2cc(Br)ccc2O)cc1 (stereo unspecified) : 5 µM (active)

Briefly, EC50 measured for Cc1ccc(NC(=O)c2cc(N3C(=O)C=CC3=O)ccc2N2CCOCC2)cc1Cl : 6.68 µM (active)

Briefly, EC50 measured for Cc1ccsc1C(=O)OCC(=O)c1cc2ccccc2o1 : > 150 µM (not active)

Briefly, EC50 measured for Cc1cc(N/N=C/c2ccc(O)c(C)c2O)nc(-c2ccccc2O)n1 : > 150 µM (not active)

* * *

Known AC50 of a selection of molecules
- assay.details: Shn3 3'UTR reporter inhibitors, dose response, cell-based, Clone20 osteoblasts, firefly luciferase, cherry-picked (AID 624132);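 note: firefly luciferase luminescence from reporter carrying the Shn3 3'UTR in osteoblasts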
- Format: functional
Activity calls are given as the source filed them.

Briefly, AC50 measured for O=C(Nc1nc2cc3c(cc2s1)OCCO3)C1=COCCO1 : 2.17 µM (active)

Briefly, AC50 measured for Cc1ccccc1OCCn1cc(C(=S)N2CCCC2)c2ccccc21 : 24.3 µM (active)

Briefly, AC50 measured for CCOc1cc(CNCCc2ccc(S(N)(=O)=O)cc2)ccc1OCc1ccc(Cl)cc1 : 3.87 µM (active)
